The reported numbers originate from patent US9216999B2.

Parameter: IC50. Scope: all listed entries.
# Experimental System: Tyk2 (Homo sapiens (Human), UniProt P29597)
# Sequence (P29597 whole entry): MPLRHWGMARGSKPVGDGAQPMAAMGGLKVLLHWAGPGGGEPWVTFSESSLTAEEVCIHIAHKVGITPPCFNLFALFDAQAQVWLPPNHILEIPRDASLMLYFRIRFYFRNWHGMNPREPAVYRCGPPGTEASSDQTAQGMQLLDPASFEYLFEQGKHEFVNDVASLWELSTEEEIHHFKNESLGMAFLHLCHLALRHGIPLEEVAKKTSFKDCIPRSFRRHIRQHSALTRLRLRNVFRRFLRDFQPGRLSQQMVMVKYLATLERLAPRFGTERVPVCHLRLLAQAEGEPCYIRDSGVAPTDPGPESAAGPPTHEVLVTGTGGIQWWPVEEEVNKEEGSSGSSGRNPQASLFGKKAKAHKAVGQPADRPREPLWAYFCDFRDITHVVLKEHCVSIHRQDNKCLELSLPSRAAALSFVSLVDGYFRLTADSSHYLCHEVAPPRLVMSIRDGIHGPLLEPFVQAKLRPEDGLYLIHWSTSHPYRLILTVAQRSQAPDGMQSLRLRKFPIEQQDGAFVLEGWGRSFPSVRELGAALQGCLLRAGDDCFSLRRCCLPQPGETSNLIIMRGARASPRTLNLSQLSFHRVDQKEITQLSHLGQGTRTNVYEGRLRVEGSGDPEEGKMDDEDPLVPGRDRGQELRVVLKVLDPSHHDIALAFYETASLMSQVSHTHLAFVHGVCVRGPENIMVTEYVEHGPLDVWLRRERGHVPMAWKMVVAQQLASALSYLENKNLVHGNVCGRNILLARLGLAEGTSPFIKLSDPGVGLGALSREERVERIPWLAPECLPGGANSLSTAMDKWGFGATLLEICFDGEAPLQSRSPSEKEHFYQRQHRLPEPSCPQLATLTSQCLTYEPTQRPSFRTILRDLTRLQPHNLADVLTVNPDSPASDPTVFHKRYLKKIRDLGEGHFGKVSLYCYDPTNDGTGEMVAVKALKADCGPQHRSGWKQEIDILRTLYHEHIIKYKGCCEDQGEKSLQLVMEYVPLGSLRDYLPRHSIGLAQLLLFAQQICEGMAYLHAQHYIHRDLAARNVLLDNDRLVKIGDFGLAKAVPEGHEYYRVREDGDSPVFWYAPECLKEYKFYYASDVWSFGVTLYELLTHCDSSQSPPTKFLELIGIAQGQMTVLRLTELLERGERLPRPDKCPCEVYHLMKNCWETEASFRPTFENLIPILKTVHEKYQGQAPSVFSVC
# Experiment Description: Enzyme assay (Assay Example^a 1), Tyk2
# Format: biochemical
# Experimental Parameters: ATP 100 μM
Only the number, expressed in µM, is required.

O=C1OCCC1NC[C@H]1CC[C@H](c2nnn3cnc4[nH]ccc4c23)CC1 (some centres unmarked)    0.2
c1cc(CN2CCC(c3nnn4cnc5[nH]ccc5c34)CC2)ccn1    0.65
c1cc2c(ncn3nnc([C@H]4CC[C@H](CNC5CSC5)CC4)c23)[nH]1    0.39

Complete the entry with IC50 for "N#CCN1CCC(c2nnn3cnc4[nH]ccc4c23)CC1"
0.14

###

# Experimental System: JAK1 (Homo sapiens (Human), UniProt P23458)
# Experiment Description: Enzyme assay (Assay Example^a 1), JAK1
# Assay type: biochemical
# Experimental Parameters: ATP 100 μM
Attribute Measured: IC50 (µM)
Respond numerically; units are µM and should not be typed.

OCCN(Cc1ccccc1)C[C@H]1CC[C@H](c2nnn3cnc4[nH]ccc4c23)CC1    0.0044
OC12CC3CC(C1)C(NC[C@H]1CC[C@H](c4nnn5cnc6[nH]ccc6c45)CC1)C(C3)C2 (stereo partly shown) [compound 303]    0.057
CN(CCC#N)C[C@H]1CC[C@H](c2nnn3cnc4[nH]ccc4c23)CC1    0.012

Continue with the next compound.
Quickly give me recorded IC50 for "COCC1(NC[C@H]2CC[C@H](c3nnn4cnc5[nH]ccc5c34)CC2)CC1"
0.024

###

# Experimental System: JAK2 (Homo sapiens (Human))
# Experiment Description: Enzyme assay (Assay Example^a 1), JAK2
# Assay type: biochemical
Each entry below carries its recorded log10 IC50.
Please interpret these as log10 of IC50 where IC50 is in µM.

Retrieve log10 IC50 measured for FC(F)(Br)CN[C@H]1CC[C@@H](c2nnn3cnc4[nH]ccc4c23)CC1 [382a] and print it.
-1.20

Given the compound O=C(N[C@H]1CC[C@H](c2nnn3cnc4[nH]ccc4c23)CC1)OCc1ccccc1 [compound 60] , write its reported log10 IC50.
-1.49

Answer with the recorded log10 IC50 of CC(C)(C)OC(=O)N1CCC(c2nnn3cnc4[nH]ccc4c23)CC1 [compound 24] only.
-0.29

###

# Experimental System: UniProt P29597
# Experiment Description: Enzyme assay (Assay Example^a 1), Tyk2
# Type: biochemical
# Experimental Parameters: ATP 100 μM
Attribute Measured: IC50 (µM)
Return type: number; implicit unit µM.

Write down IC50 measured for item "OC1CCN(C[C@H]2CC[C@H](c3nnn4cnc5[nH]ccc5c34)CC2)CC1"
0.43

// Input: "CC(C)(C)OC(=O)N1CC[C@H](NC[C@H]2CC[C@H](c3nnn4cnc5[nH]ccc5c34)CC2)C1" . Output its IC50 only.
0.51

###

# Experimental System: JAK1 (Homo sapiens (Human))
# Experiment Description: Enzyme assay (Assay Example^a 1), JAK1
# Format: biochemical
# Experimental Parameters: ATP 100 μM
Attribute Measured: IC50

c1cc2c(ncn3nnc(C4CCN(Cc5cscn5)CC4)c23)[nH]1    0.039 µM

Report IC50, nothing else, for this compound: "OC1CCN(C[C@H]2CC[C@H](c3nnn4cnc5[nH]ccc5c34)CC2)CC1"
0.02 µM

Dear colleague, please send me the reported IC50 for "O=S(=O)(C[C@H]1CC[C@H](c2nnn3cnc4[nH]ccc4c23)CC1)NCC(F)(F)F" when you can.
0.0057 µM

Please list IC50 recorded for the compound N#CC=C1CCC(c2nnn3cnc4[nH]ccc4c23)CC1 (centres unmarked)
0.0023 µM

Please report the measured IC50 for "FC(F)CNC[C@H]1CC[C@H](c2nnn3cnc4[nH]ccc4c23)CC1"
0.0025 µM
